Target: TRAILR2 receptor on the surface of human tumor cells (human, UniProt O14763 56-440)
Experiment: cell-based or functional assay
What eff. (efficiency %), cytotoxic effect on Mia PaCa-2 cells was measured for each of the following?
One number for each entry, in %.

Examples with answers:
Zapadcine-3b (antibody, V domains shown, MMAE coupled through linker PY-MAA by thiol bridge coupling, non-cleavable; positions not given) VH: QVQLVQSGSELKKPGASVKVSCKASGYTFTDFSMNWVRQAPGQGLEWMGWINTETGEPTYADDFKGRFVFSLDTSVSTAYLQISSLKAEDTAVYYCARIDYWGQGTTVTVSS VL: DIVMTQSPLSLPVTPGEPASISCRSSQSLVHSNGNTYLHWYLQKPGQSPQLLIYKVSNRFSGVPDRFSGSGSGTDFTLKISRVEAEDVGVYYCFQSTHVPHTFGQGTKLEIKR; 52.9
Zaptuzumab (antibody, V domains shown) VH: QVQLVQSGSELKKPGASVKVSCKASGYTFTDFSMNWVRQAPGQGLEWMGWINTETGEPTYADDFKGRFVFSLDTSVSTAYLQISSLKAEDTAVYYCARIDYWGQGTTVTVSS VL: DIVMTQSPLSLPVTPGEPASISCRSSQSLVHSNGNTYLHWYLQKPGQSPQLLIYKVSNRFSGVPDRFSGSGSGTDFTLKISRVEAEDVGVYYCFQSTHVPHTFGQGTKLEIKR; 33.2

# ---- query binder ----
QUERY: Fill in the blank: the reported eff. (efficiency %), cytotoxic effect on Mia PaCa-2 cells of Zapadcine-3a (antibody, V domains shown, MMAE coupled through linker PY-VC-PAB by thiol bridge coupling, cleavable; positions not given) VH: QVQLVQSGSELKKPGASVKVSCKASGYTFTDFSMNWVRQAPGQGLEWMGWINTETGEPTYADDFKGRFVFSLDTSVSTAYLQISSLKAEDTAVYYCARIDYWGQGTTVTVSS VL: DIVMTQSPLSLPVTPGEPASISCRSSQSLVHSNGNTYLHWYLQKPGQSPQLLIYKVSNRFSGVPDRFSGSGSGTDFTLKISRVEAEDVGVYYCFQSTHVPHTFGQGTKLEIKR is ____.
RESULT: 88.8
